// data source = paper PMC9868654

Molecular target: PARP1 (Homo sapiens)
Assay: PARP1 enzyme inhibitory assay
Format: biochemical
Conditions: Table 2, B and C series; mean of three experiments
pIC50: −log10 of the molar value.
pIC50 values for the molecules below.
observable: pIC50

[[record]]
molecule = "CCCCCCNNC(=O)c1cc(Cc2n[nH]c(=O)c3ccccc23)ccc1F [B6]"
tested_target = "PARP1 (Homo sapiens)"
observable = "pIC50"
assay_result = 8.03

[[record]]
molecule = "CC(C)CNNC(=O)c1cc(Cc2n[nH]c(=O)c3ccccc23)ccc1F [B4]"
tested_target = "PARP1 (Homo sapiens)"
observable = "pIC50"
assay_result = 7.93

[[record]]
molecule = "CCCCNNC(=O)c1cc(Cc2n[nH]c(=O)c3ccccc23)ccc1F [B3]"
tested_target = "PARP1 (Homo sapiens)"
observable = "pIC50"
assay_result = 8.55

[[record]]
molecule = "O=C(CCCc1ccc(N(CCCl)CCCl)cc1)N1CCN(C(=O)c2cc(Cc3n[nH]c(=O)c4ccccc34)ccc2F)CC1 [C2]"
tested_target = "PARP1 (Homo sapiens)"
observable = "pIC50"
assay_result = 9.05

[[record]]
molecule = "CCCCCNNC(=O)c1cc(Cc2n[nH]c(=O)c3ccccc23)ccc1F [B5]"
tested_target = "PARP1 (Homo sapiens)"
observable = "pIC50"
assay_result = 8.28

[[record]]
molecule = "O=C(c1ccc(N(CCCl)CCCl)cc1)N1CCN(C(=O)c2cc(Cc3n[nH]c(=O)c4ccccc34)ccc2F)CC1 [C1]"
tested_target = "PARP1 (Homo sapiens)"
observable = "pIC50"
assay_result = 8.92


* * *

Target: PARP1 (Homo sapiens)
Experiment: PARP1 enzyme inhibitory assay
Type: biochemical
Conditions: Table 1, A series; mean of three experiments
observable: IC50 (nM)

[[record]]
compound = "O=c1[nH]nc(Cc2ccc(F)c(CN3CCC(Cc4ccccc4)CC3)c2)c2ccccc12 [A18]"
tested_target = "PARP1 (Homo sapiens)"
comparator = ">"
assay_result = 50

[[record]]
compound = "O=C(c1ccccc1Cl)N1CCN(Cc2cc(Cc3n[nH]c(=O)c4ccccc34)ccc2F)CC1 [A7]"
tested_target = "PARP1 (Homo sapiens)"
comparator = "="
assay_result = 24.6

[[record]]
compound = "COC(=O)C1CCN(Cc2cc(Cc3n[nH]c(=O)c4ccccc34)ccc2F)CC1 [A17]"
tested_target = "PARP1 (Homo sapiens)"
comparator = ">"
assay_result = 50

[[record]]
compound = "O=C(c1ccccc1F)N1CCN(Cc2cc(Cc3n[nH]c(=O)c4ccccc34)ccc2F)CC1 [A2]"
tested_target = "PARP1 (Homo sapiens)"
comparator = "="
assay_result = 29.4

[[record]]
compound = "COc1ccc(C(=O)N2CCN(Cc3cc(Cc4n[nH]c(=O)c5ccccc45)ccc3F)CC2)cc1 [A13]"
tested_target = "PARP1 (Homo sapiens)"
comparator = ">"
assay_result = 50

[[record]]
compound = "O=C(c1cccc(Br)c1)N1CCN(Cc2cc(Cc3n[nH]c(=O)c4ccccc34)ccc2F)CC1 [A8]"
tested_target = "PARP1 (Homo sapiens)"
comparator = "="
assay_result = 22.5

[[record]]
compound = "O=C(c1ccc(C(F)(F)F)cc1)N1CCN(Cc2cc(Cc3n[nH]c(=O)c4ccccc34)ccc2F)CC1 [A4]"
tested_target = "PARP1 (Homo sapiens)"
comparator = "="
assay_result = 42.2

[[record]]
compound = "O=C(c1ccccc1C(F)(F)F)N1CCN(Cc2cc(Cc3n[nH]c(=O)c4ccccc34)ccc2F)CC1 [A5]"
tested_target = "PARP1 (Homo sapiens)"
comparator = "="
assay_result = 33.2


* * *

pIC50 values for the compounds below.
System: MCF-7 cells
Experiment: In vitro antiproliferative assay (CCK-8)
Format: cell-based
Settings: Homo sapiens, MCF7; MCF-7, without BRCA mutations; CCK-8, 72 h; mean of three
pIC50: −log10 of the molar value.
observable: pIC50

[[record]]
chemical_smiles = "O=C(c1cc(Cc2n[nH]c(=O)c3ccccc23)ccc1F)N1CCN(C(=O)C2CC2)CC1"
tested_target = "MCF-7 cells"
observable = "pIC50"
comparator = "="
assay_result = 4.51

[[record]]
chemical_smiles = "O=C(O)CCCc1ccc(N(CCCl)CCCl)cc1"
tested_target = "MCF-7 cells"
observable = "pIC50"
comparator = "="
assay_result = 4.71

[[record]]
chemical_smiles = "CCCCNNC(=O)c1cc(Cc2n[nH]c(=O)c3ccccc23)ccc1F"
tested_target = "MCF-7 cells"
observable = "pIC50"
comparator = "<"
assay_result = 4.00

[[record]]
chemical_smiles = "O=C(CCCc1ccc(N(CCCl)CCCl)cc1)N1CCN(C(=O)c2cc(Cc3n[nH]c(=O)c4ccccc34)ccc2F)CC1"
tested_target = "MCF-7 cells"
observable = "pIC50"
comparator = "="
assay_result = 5.64

[[record]]
chemical_smiles = "O=C(c1ccc(N(CCCl)CCCl)cc1)N1CCN(C(=O)c2cc(Cc3n[nH]c(=O)c4ccccc34)ccc2F)CC1"
tested_target = "MCF-7 cells"
observable = "pIC50"
comparator = "<"
assay_result = 4.00


* * *

pIC50 values for the compounds below.
Target: PARP1 (Homo sapiens, UniProt P09874)
Sequence (P09874 whole entry): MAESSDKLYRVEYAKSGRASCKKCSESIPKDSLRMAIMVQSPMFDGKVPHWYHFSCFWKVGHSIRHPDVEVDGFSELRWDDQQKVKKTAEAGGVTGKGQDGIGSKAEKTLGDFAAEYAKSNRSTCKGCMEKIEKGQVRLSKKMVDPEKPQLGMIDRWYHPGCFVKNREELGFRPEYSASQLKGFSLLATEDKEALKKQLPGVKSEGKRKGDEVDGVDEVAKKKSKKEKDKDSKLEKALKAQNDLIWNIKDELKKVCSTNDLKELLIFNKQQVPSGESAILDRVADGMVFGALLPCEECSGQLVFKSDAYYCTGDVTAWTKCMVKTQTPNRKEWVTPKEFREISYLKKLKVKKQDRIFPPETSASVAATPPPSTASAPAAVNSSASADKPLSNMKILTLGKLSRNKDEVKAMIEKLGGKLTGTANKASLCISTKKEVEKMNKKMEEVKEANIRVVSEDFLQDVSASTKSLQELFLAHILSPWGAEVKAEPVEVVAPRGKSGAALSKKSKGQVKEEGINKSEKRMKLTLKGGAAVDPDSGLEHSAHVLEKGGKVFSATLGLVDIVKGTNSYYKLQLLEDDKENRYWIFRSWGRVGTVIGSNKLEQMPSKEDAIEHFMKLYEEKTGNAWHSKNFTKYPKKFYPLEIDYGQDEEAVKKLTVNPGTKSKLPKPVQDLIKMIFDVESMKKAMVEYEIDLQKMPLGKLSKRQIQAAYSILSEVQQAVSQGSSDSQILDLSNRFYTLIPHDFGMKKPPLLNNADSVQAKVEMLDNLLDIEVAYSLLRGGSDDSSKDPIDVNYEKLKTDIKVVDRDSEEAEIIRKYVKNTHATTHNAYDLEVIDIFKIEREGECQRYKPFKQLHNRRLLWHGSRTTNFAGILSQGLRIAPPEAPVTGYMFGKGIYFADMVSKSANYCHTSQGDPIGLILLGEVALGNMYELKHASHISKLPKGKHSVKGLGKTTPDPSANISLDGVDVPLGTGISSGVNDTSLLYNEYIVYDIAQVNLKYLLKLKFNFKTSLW
Test: PARP1 enzyme inhibitory assay
Format: biochemical
Conditions: Table 1, A series; mean of three experiments
pIC50: −log10 of the molar value.
observable: pIC50

[[record]]
chemical_smiles = "O=C(c1ccc2c(c1)OCO2)N1CCN(Cc2cc(Cc3n[nH]c(=O)c4ccccc34)ccc2F)CC1"
comparator = "="
assay_result = 7.90

[[record]]
chemical_smiles = "O=C(C1CCC(F)(F)CC1)N1CCN(Cc2cc(Cc3n[nH]c(=O)c4ccccc34)ccc2F)CC1"
comparator = "="
assay_result = 8.03

[[record]]
chemical_smiles = "O=c1[nH]nc(Cc2ccc(F)c(CN3CCN(Cc4ccc5c(c4)OCO5)CC3)c2)c2ccccc12"
comparator = "<"
assay_result = 7.30

[[record]]
chemical_smiles = "O=C(C1CC1)N1CCN(Cc2cc(Cc3n[nH]c(=O)c4ccccc34)ccc2F)CC1"
comparator = "="
assay_result = 8.08

[[record]]
chemical_smiles = "O=C(c1ccc(F)cc1)N1CCN(Cc2cc(Cc3n[nH]c(=O)c4ccccc34)ccc2F)CC1"
comparator = "="
assay_result = 7.51

[[record]]
chemical_smiles = "O=c1[nH]nc(Cc2ccc(F)c(CN3CCC(N4CCCCC4)CC3)c2)c2ccccc12"
comparator = "<"
assay_result = 7.30


* * *

Molecular target: PARP1 (Homo sapiens)
Assay: PARP1 enzyme inhibitory assay
Format: biochemical
Details: Table 1, A series; mean of three experiments
pIC50: −log10 of the molar value.
observable: pIC50

[[record]]
chemical_smiles = "CCc1ccc(C(=O)N2CCN(Cc3cc(Cc4n[nH]c(=O)c5ccccc45)ccc3F)CC2)cc1"
tested_target = "PARP1 (Homo sapiens)"
comparator = "="
assay_result = 7.67

[[record]]
chemical_smiles = "O=C(c1cccc(F)c1)N1CCN(Cc2cc(Cc3n[nH]c(=O)c4ccccc34)ccc2F)CC1"
tested_target = "PARP1 (Homo sapiens)"
comparator = "="
assay_result = 7.75

[[record]]
chemical_smiles = "O=C(c1cccc(C(F)(F)F)c1)N1CCN(Cc2cc(Cc3n[nH]c(=O)c4ccccc34)ccc2F)CC1"
tested_target = "PARP1 (Homo sapiens)"
comparator = "<"
assay_result = 7.30

[[record]]
chemical_smiles = "Cc1ccccc1C(=O)N1CCN(Cc2cc(Cc3n[nH]c(=O)c4ccccc34)ccc2F)CC1"
tested_target = "PARP1 (Homo sapiens)"
comparator = "="
assay_result = 7.90

[[record]]
chemical_smiles = "COc1ccccc1C(=O)N1CCN(Cc2cc(Cc3n[nH]c(=O)c4ccccc34)ccc2F)CC1"
tested_target = "PARP1 (Homo sapiens)"
comparator = "="
assay_result = 7.53

[[record]]
chemical_smiles = "O=C(C1CCCCC1)N1CCN(Cc2cc(Cc3n[nH]c(=O)c4ccccc34)ccc2F)CC1"
tested_target = "PARP1 (Homo sapiens)"
comparator = "="
assay_result = 8.00

[[record]]
chemical_smiles = "O=C(c1ccccc1)N1CCN(Cc2cc(Cc3n[nH]c(=O)c4ccccc34)ccc2F)CC1"
tested_target = "PARP1 (Homo sapiens)"
comparator = "<"
assay_result = 7.30

[[record]]
chemical_smiles = "NC(=O)C1CCN(Cc2cc(Cc3n[nH]c(=O)c4ccccc34)ccc2F)CC1"
tested_target = "PARP1 (Homo sapiens)"
comparator = "<"
assay_result = 7.30

